test: Cytotoxicity against human HepG2(2.2.15) cells; assay type: cell-based
Decide using CC50 alone. Strictly below 100 µM: Y. Equal to or above 100 µM: N.

Use these answered entries as a reference point.
compound	classLabel
CC(C)(C)[Si](OCCc1c(OS(=O)(=O)C(F)(F)F)nc2ccc(Cl)cc2c1-c1ccccc1Cl)(c1ccccc1)c1ccccc1	N
[N-]=[N+]=NCCc1c(Cl)nc2ccc(Cl)cc2c1-c1ccccc1Cl	N
OCCc1c(OCc2c(Cl)cccc2Cl)nc2ccc(Cl)cc2c1-c1ccccc1Cl	Y
CS(=O)(=O)OCCc1c(OS(C)(=O)=O)nc2ccc(Cl)cc2c1-c1ccccc1Cl	N
O=c1[nH]c2ccc(Cl)cc2c(-c2ccccc2Cl)c1CCO	N

[in] Dear colleague, could you confirm whether CC50 of `OCCc1c(Nn2nnc3ccccc32)nc2ccc(Cl)cc2c1-c1ccccc1Cl` falls below 100 µM? Thanks.
[out] Y

[in] Identify whether the compound `OCCc1c(N2CCCCC2)nc2ccc(Cl)cc2c1-c1ccccc1Cl` records CC50 below 100 µM.
[out] N

---

system: Hepatitis B virus; test: Antiviral activity against HBV infected in human HepG 2.215 cells assessed as inhibition of HBeAg secretion by ELISA; type: functional, organism-based; conditions: HepG2.2.15
pIC50: −log10 of the molar value.
propertyName: pIC50

molecularString	pIC50
COc1nc2ccc(Cl)cc2c(-c2ccccc2Cl)c1CCO	< 2.57
CS(=O)(=O)OCCc1c(Cl)nc2ccc(Cl)cc2c1-c1ccccc1Cl	3.19
CC(C)(C)[Si](OCCc1c(N2CCOCC2)nc2ccc(Cl)cc2c1-c1ccccc1Cl)(c1ccccc1)c1ccccc1	< 2.92
[N-]=[N+]=NCCc1c(N=[N+]=[N-])nc2ccc(Cl)cc2c1-c1ccccc1Cl	< 2.61

Okay, next one:
[in] Please give the measured pIC50 for this molecule: `CC(C)(C)[Si](OCCc1c(N2CCCCC2)nc2ccc(Cl)cc2c1-c1ccccc1Cl)(c1ccccc1)c1ccccc1`
[out] < 3.01

---

test system: Hepatitis B virus; assay: Antiviral activity against HBV infected in human HepG 2.215 cells assessed as inhibition of HBeAg secretion by ELISA; assay type: functional, organism-based; conditions: HepG2.2.15
This section presents molecules with their documented pIC50 values.
Recall that pIC50 is obtained by taking minus log10 of the concentration measured in molar.

Answered examples (3):
molecularString	resultValue
CS(=O)(=O)OCCc1c(OS(C)(=O)=O)nc2ccc(Cl)cc2c1-c1ccccc1Cl	3.43
CC(=O)OCCc1c(Cl)nc2ccc(Cl)cc2c1-c1ccccc1Cl	4.15
OCCc1c(N2CCCCC2)nc2ccc(Cl)cc2c1-c1ccccc1Cl	4.30

# context switch: different molecule, same pIC50
[in] Fill blank: measured pIC50 of the molecule `O=c1[nH]c2ccc(Cl)cc2c(-c2ccccc2Cl)c1CCO` is ____.
[out] 3.47

---

Reported values of IC50 for individual entries
system: Hepatitis B virus; experiment: Antiviral activity against HBV infected in human HepG 2.215 cells assessed as inhibition of HBeAg secretion by ELISA; assay type: functional, organism-based; conditions: HepG2.2.15

Field: example entries. Status: answers known.
molecularString	propertyName	resultValue
OCCc1c(N2CCNCC2)nc2ccc(Cl)cc2c1-c1ccccc1Cl	IC50	> 5 µM
[N-]=[N+]=NCCc1c(Cl)nc2ccc(Cl)cc2c1-c1ccccc1Cl	IC50	> 2510 µM

[in] Entry under review: `OCCc1c(N2CCOCC2)nc2ccc(Cl)cc2c1-c1ccccc1Cl` . Reported IC50?
[out] > 1590 µM

[in] I'd like to know its IC50. The molecule in question is `CC(C)(C)[Si](OCCc1c(Nn2nnc3ccccc32)nc2ccc(Cl)cc2c1-c1ccccc1Cl)(c1ccccc1)c1ccccc1`
[out] > 1250 µM
